Where do these numbers come from? They come from PubChem BioAssay (NCI).

Test system: T-47D breast
ASSAY_PROCEDURE: NCI tumour cell line growth inhibition, 48 h
ASSAY_READOUT: TGI

Known TGI results, listed for orientation:
MOLECULE: C#CCN(Cc1nc2cc(C(F)(F)F)ccc2nc1-c1ccccc1)c1ccc(F)cc1
TEST_TARGET: T-47D breast
ASSAY_READOUT: TGI
MEASURED: > 100 µM
--
MOLECULE: CC(C)C1=CC23CCC4C(C)(C(=O)O)CCCC4(C)C2CC1C1C(=O)N(c2cccc(N4C(=O)C5C6CC7C8(C)CCCC(C)(C(=O)O)C8CCC7(C=C6C(C)C)C5C4=O)c2)C(=O)C13 (configuration not stated)
TEST_TARGET: T-47D breast
ASSAY_READOUT: TGI
MEASURED: 33.7 µM
--
MOLECULE: COC(=O)/C=C/c1cnc2c(c1)oc(=O)n2C
TEST_TARGET: T-47D breast
ASSAY_READOUT: TGI
MEASURED: > 100 µM
--
MOLECULE: C/C(=N\Nc1nc2ccccc2o1)c1cc2ccccc2cn1
TEST_TARGET: T-47D breast
ASSAY_READOUT: TGI
MEASURED: > 100 µM
--
MOLECULE: CCCC(=O)Nc1c(I)cc(I)c(CC(CC)C(=O)O)c1I (configuration not stated)
TEST_TARGET: T-47D breast
ASSAY_READOUT: TGI
MEASURED: > 100 µM
--
MOLECULE: CC(=Nc1ccccc1)C1=C(O)C(Cc2ccc(F)cc2)NC1=O (configuration not stated)
TEST_TARGET: T-47D breast
ASSAY_READOUT: TGI
MEASURED: > 100 µM

Then there is this molecule:
Can you look up the measured TGI of N#Cc1c2ccc([N+](=O)[O-])cc2c(=O)n2c1sc1ccccc12 for me?
71.4 µM
